study.target: T1, integrin αvβ3, purified from human placenta (human, UniProt P06756 31-1048; P05106 27-788)
T1 construct: mature; Native heterodimer, immobilized on ELISA plates or on the BIAcore chip; biotinylated in capture lift and capture ELISA screens; also called αvβ3 receptor; vitronectin receptor
T1 sequence (P06756 31-1048, form in doubt, chain 1 of 2): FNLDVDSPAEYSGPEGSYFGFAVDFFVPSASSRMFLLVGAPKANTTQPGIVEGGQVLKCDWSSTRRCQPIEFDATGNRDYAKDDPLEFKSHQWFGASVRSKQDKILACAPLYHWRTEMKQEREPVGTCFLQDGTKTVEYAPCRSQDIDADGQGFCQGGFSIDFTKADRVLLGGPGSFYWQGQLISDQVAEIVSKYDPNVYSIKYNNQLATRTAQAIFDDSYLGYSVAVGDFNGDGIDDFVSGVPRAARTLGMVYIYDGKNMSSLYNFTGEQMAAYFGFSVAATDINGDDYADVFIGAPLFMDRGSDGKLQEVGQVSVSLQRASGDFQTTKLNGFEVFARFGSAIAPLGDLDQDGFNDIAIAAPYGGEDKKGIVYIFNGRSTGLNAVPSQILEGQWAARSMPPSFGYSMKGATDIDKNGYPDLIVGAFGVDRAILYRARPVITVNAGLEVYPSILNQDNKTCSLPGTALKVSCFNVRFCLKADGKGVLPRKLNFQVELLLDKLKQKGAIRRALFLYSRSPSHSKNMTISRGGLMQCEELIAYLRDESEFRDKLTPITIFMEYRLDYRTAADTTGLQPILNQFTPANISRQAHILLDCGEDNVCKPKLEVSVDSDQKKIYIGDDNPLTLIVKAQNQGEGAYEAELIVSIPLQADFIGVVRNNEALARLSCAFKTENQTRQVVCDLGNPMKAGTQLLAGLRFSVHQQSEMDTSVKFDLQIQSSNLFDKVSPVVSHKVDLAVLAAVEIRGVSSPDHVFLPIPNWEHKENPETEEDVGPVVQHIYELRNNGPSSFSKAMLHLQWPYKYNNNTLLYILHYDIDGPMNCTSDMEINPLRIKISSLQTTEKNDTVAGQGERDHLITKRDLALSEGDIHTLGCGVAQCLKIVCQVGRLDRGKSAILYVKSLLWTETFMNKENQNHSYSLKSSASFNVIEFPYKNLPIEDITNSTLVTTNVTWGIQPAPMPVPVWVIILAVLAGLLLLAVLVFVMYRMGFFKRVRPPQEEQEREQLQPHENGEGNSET
T1 sequence (P05106 27-788, form in doubt, chain 2 of 2): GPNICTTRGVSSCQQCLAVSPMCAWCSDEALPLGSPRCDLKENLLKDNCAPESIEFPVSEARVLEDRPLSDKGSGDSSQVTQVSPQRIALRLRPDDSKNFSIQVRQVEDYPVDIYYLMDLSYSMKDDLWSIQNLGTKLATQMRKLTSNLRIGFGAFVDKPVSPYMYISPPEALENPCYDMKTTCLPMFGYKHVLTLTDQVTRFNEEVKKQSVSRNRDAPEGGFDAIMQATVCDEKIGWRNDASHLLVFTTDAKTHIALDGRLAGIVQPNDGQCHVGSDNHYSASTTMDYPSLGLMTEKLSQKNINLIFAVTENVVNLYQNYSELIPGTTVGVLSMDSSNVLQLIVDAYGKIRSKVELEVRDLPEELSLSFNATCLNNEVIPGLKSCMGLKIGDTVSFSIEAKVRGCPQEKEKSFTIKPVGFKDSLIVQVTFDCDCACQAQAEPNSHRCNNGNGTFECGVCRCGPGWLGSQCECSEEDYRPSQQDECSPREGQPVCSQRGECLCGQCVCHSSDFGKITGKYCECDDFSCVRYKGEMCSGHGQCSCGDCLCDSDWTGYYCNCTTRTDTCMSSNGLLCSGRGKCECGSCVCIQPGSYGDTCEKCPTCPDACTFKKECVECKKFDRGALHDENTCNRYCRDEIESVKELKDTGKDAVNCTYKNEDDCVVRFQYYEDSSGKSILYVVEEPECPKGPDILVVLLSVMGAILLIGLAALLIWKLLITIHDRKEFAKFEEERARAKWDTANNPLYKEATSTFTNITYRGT
assay.text: SPR (BIAcore), purified Fab over immobilized αvβ3
reported.metric: koff (s⁻¹)
Could you give me the number in s⁻¹? Just the number is fine.

>>> number("LM609 grafted antibody combinatorial clone 6G1 (Fab, V domains shown, Fab) VH: QVQLVESGGGVVQPGRSLRLSCAASGFTFSSYDMSWVRQAPGKGLEWVAKVSSGGGSTYYPDTVQGRFTISRDNSKNTLYLQMNSLRAEDTAVYYCARHNYGSFASWGQGTTVTVSS VL: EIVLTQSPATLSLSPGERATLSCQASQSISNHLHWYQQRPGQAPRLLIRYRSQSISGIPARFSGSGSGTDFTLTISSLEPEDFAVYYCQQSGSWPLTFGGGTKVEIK")
0.00028

[in] # get_value(readout='koff', item= LM609 grafted antibody combinatorial clone 8F9 (Fab, V domains shown, Fab) VH: QVQLVESGGGVVQPGRSLRLSCAASGFTFSSYDMSWVRQAPGKGLEWVAKVSSGGGSTYYPDTVQGRFTISRDNSKNTLYLQMNSLRAEDTAVYYCARHNHGSFASWGQGTTVTVSS VL: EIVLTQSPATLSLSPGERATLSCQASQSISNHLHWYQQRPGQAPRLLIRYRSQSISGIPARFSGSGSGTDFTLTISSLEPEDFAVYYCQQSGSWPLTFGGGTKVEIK )
[out] 0.00028
